molecular target: TRF1 (Homo sapiens, UniProt P54274 1-439); assay: EMSA
Sequence (P54274 whole entry): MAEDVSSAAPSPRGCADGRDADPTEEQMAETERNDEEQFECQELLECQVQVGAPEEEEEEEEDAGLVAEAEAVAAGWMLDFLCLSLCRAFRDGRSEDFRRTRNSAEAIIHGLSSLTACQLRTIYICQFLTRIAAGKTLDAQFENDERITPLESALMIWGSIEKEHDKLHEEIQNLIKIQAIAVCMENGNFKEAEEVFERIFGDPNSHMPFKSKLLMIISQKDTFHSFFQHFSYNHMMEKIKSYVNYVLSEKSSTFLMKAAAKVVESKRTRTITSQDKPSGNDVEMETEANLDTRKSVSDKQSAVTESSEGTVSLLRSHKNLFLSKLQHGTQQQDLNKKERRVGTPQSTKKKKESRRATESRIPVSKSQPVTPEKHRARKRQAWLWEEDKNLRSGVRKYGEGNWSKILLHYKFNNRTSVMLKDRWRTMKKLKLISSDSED

{"binder": "CTRL (dsDNA) DNA 1: GTGGATCCGTACTTAGGGTTAGGGTTAACACGAATTCGA DNA 2: TCGAATTCGTGTTAACCCTAACCCTAAGTACGGATCCAC", "binding signal, % bound at 25 nM TRF1": 61}
{"binder": "8oxoG2 (dsDNA, 8-oxoG at positions 17, 18 of strand 1) DNA 1: GTGGATCCGTACTTAGGGTTAGGGTTAACACGAATTCGA DNA 2: TCGAATTCGTGTTAACCCTAACCCTAAGTACGGATCCAC", "binding signal, % bound at 25 nM TRF1": 29}
{"binder": "8oxoG1 (dsDNA, 8-oxoG at position 17 of strand 1) DNA 1: GTGGATCCGTACTTAGGGTTAGGGTTAACACGAATTCGA DNA 2: TCGAATTCGTGTTAACCCTAACCCTAAGTACGGATCCAC", "binding signal, % bound at 25 nM TRF1": 31}

Values compiled from paper PMC549571.
